Cited source for all entries: ChEMBL document CHEMBL2439992

- testName: Ratio of drug level in brain to plasma in CD1 mouse at 5 mg/kg, po and iv
- Assay type: ADME, organism-based
- Parameters: dose 5 mg/kg, route oral
- testConditions: read-out: BPR

>  <molecule>
Nc1nc(C(=O)N2N=C3CCCC[C@@H]3[C@@]2(O)C(F)(F)F)cs1 (racemic)

>  <Kp>
0.34

$$$$

----------
- testName: Permeability of the compound from apical to basolateral side of MDCK cells expressing MDR1 after 120 mins
- Assay type: ADME, cell-based, Canis lupus familiaris
- testConditions: dog, read-out: permeability
Please note: YES applies when Papp A→B at 2 h is 30 ×10⁻⁶ cm/s or greater, and NO applies otherwise.

>  <molecule>
O=C(c1ccncc1)N1N=C2CCCC[C@@H]2[C@@]1(O)C(F)(F)F (racemic)

>  <classAssignment>
YES

$$$$
>  <molecule>
Cc1ccc(C(=O)N2N=C3CCCC[C@@H]3[C@@]2(O)C(F)(F)F)cn1 (racemic)

>  <classAssignment>
YES

$$$$
>  <molecule>
Nc1nc(C(=O)N2N=C3CCCC[C@@H]3[C@@]2(O)C(F)(F)F)cs1 (racemic)

>  <classAssignment>
YES

$$$$
>  <molecule>
O=C(c1ccncc1)N1N=C2CCCCC[C@@H]2[C@@]1(O)C(F)(F)F (racemic)

>  <classAssignment>
YES

$$$$
>  <molecule>
Cn1cc(Br)c(C(=O)N2N=C3CCCC[C@@H]3[C@@]2(O)C(F)(F)F)n1 (racemic)

>  <classAssignment>
YES

$$$$
>  <molecule>
Cn1cnc(S(=O)(=O)N2N=C3CCCC[C@@H]3[C@@]2(O)C(F)(F)F)c1 (racemic)

>  <classAssignment>
NO

$$$$
>  <molecule>
Cc1cccc(C(=O)N2N=C3CCCC[C@@H]3[C@@]2(O)C(F)(F)F)c1O (racemic)

>  <classAssignment>
YES

$$$$
>  <molecule>
Cn1cc(N)c(C(=O)N2N=C3CCCC[C@@H]3[C@@]2(O)C(F)(F)F)n1 (racemic)

>  <classAssignment>
NO

$$$$

----------
- testName: Kinetic solubility of the compound at pH 7.4
- Format: physicochemical
- testConditions: buffer, read-out: Kinetic_solubility
observable: solubility kinetic (µM)

>  <compound>
Cc1cccc(C(=O)N2N=C3CCCC[C@@H]3[C@@]2(O)C(F)(F)F)c1O (racemic)

>  <recordedResult>
101

$$$$
>  <compound>
Nc1nc(C(=O)N2N=C3CCCC[C@@H]3[C@@]2(O)C(F)(F)F)cs1 (racemic)

>  <recordedResult>
96

$$$$
>  <compound>
O=C(c1ccc[nH]1)N1N=C2CCCC[C@@H]2[C@@]1(O)C(F)(F)F (racemic)

>  <recordedResult>
72

$$$$
>  <compound>
Cn1cnc(S(=O)(=O)N2N=C3CCCC[C@@H]3[C@@]2(O)C(F)(F)F)c1 (racemic)

>  <recordedResult>
156

$$$$
>  <compound>
O=C(c1cncc(Br)c1)N1N=C2CCOC[C@@H]2[C@@]1(O)C(F)(F)F (racemic)

>  <recordedResult>
111

$$$$
>  <compound>
O=C(c1ccncc1)N1N=C2CCCCC[C@@H]2[C@@]1(O)C(F)(F)F (racemic)

>  <recordedResult>
96

$$$$
>  <compound>
Cc1ccc(C(=O)N2N=C3CCCCC[C@@H]3[C@@]2(O)C(F)(F)F)cn1 (racemic)

>  <recordedResult>
56

$$$$
>  <compound>
Cn1cc(N)c(C(=O)N2N=C3CCCC[C@@H]3[C@@]2(O)C(F)(F)F)n1 (racemic)

>  <recordedResult>
205

$$$$
